# experimentalProtocol: probe aNOTCH3 binding on compound microarray – biochemical, small-molecule microarray, 635/667 nm fluorescence, primary screen (AID 1120);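 also: probe is a biotin-tagged antibody raised against NOTCH3 rather than NOTCH3 protein; score merges spot fluorescence near 667 nm with spot signal to noise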
# statedConditions: higher = more signal
Recorded composite z-score determines the label; the label ranges are lo (below -0.2), mid (-0.2 to below 0.1), hi (0.1 or more)

Example results:
C=CCOC(=O)[C@@H]1[C@H]2C(=O)O[C@H](c3ccccc3)[C@H](c3ccccc3)N2[C@H](c2ccc(OCCOC(=O)[C@H]3C[C@H]4C(=O)N[C@@H](Cc5ccccc5)C(=O)N4[C@H]3c3ccc(O)cc3)cc2)[C@@]12C(=O)Nc1ccc(I)cc12	mid
NC(=O)NCC#Cc1ccc2c(c1)[C@]1(C(=O)N2)[C@H](c2ccccc2OCCO)N2[C@H](c3ccccc3)[C@H](c3ccccc3)OC(=O)[C@H]2[C@@H]1C(=O)N1CCCCCCC1	hi
COCCn1c(C(=O)N2CCCC2)cc2c1C[C@H]1CN(C(=O)c3ccccc3)[C@@](Cc3ccc(OC)cc3)(C(=O)OC)[C@@H]21	hi
O=C1OCCC/C=C\[C@H]2OC34C=CCN(CCN5CCOCC5)C(=O)[C@H]3N(CCO)C(=O)[C@@H]4C12 (some centres not stated)	lo
O=C1O[C@@H](c2ccccc2)[C@@H](c2ccccc2)N2[C@@H](c3ccc(O)cc3)[C@]3(C(=O)Nc4ccc(C#CCCO)cc43)[C@@H](C(=O)O)[C@H]12	hi
C=C(CCCC)/C(=C/C[C@H](OC(C)=O)c1ccc(CO)o1)c1cc(C(=O)OC)ccc1OC	hi
CCCC[C@H]1OB(O)C[C@H]2C1=C(C)Cn1c(=O)n(-c3ccccc3)c(=O)n12	lo
CCOC(=O)C[C@H]1[C@H](OC(=O)c2ccc(C(=O)c3ccccc3)cc2)[C@@H](NC(=O)c2ccc3ccccc3n2)c2cc(OCCCO)ccc2N1C(=O)c1ccc2ccccc2n1	hi

Lookup: Any idea which band CN(C)CCCC[C@@H]1NC(=O)[C@H]2C[C@@H](C(=O)NCCCCCNC(=O)CS)[C@@H](c3ccc(O)cc3)N2C1=O is in?
Found: lo

Lookup: Pick a category. Item: Cc1ccc(N2C(=O)c3ccccc3[C@@H](C(=O)NC(C)C)[C@@H]2c2ccc(CO)cc2)nc1
Found: lo

Lookup: For O=C1C2C=CC(C(O)c3ccccn3)N(Nc3ccccc3F)C2C(=O)N1c1ccccc1 (configuration not stated) , which composite z-score bin applies?
Found: mid

Lookup: State the band of COCCOC(=O)N1C(=O)[C@@]2(c3cc(C#CC4=CCCCC4)ccc31)[C@H](C(=O)N1CCN(c3ncccn3)CC1)[C@H]1C(=O)O[C@H](c3ccccc3)[C@H](c3ccccc3)N1[C@@H]2c1ccc(OCCO)cc1
Found: mid

Lookup: Band for C=CCOC(=O)[C@H]1[C@@H]2C(=O)O[C@@H](c3ccccc3)[C@@H](c3ccccc3)N2[C@@H](c2ccc(OCCOC(=O)[C@H]3C[C@H]4C(=O)N[C@@H](CCCC[N+](C)(C)C)C(=O)N4[C@H]3c3ccc(O)cc3)cc2)[C@]12C(=O)Nc1ccccc12 ?
Found: mid

----------
# experimentalProtocol: calcein-AM signal in unstimulated myeloma cells – cell-based, calcein-AM fluorescence, 48 h, PK04 Diversity Set, profiling panel (AID 1166);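 also: cells grown under basal conditions without added stimulus; test concentration not given here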
# statedConditions: RPMI8226 myeloma viability, higher = more signal
Each record is given fulfilled if its reported z-score is strictly below -2. Records at or above -2 are given not fulfilled.

Reference set, count: 3
O=C1O[C@H](c2ccccc2)[C@H](c2ccccc2)N2[C@H]1[C@@H](C(=O)N1CCCCCCC1)[C@]1(C(=O)Nc3ccc(C#CC4=CCCCC4)cc31)[C@H]2c1ccc(O)cc1	not fulfilled
O=C1OCC=C[C@H]2OC34C=CCN(c5ccc(Cl)cc5)C(=O)[C@H]3N(CCCO)C(=O)[C@@H]4[C@@H]12 (stereo partly specified)	not fulfilled
CO[C@H]1O[C@H](CO)[C@@H](OC(=O)Nc2ccc3c(c2)OCO3)[C@H](OC(=O)Nc2ccc3c(c2)OCO3)[C@H]1OC(=O)Nc1ccc2c(c1)OCO2	not fulfilled

Lookup: Item COCCOC(=O)N1C(=O)[C@@]2(c3cc(C#Cc4ccc(OC)cc4)ccc31)[C@H](C(N)=O)[C@H]1C(=O)O[C@H](c3ccccc3)[C@H](c3ccccc3)N1[C@@H]2c1ccc(O)cc1 : z-score beneath -2, strictly?
Found: fulfilled

Lookup: # TODO verify z-score < -2 strictly for this compound: COc1ccc([Si](C)(C)[C@@H]2[C@@H](CCO)O[C@]3(C(=O)N(Cc4ccc(N5C(=O)c6cccc7cccc5c67)cc4)c4ccccc43)[C@H]2C)cc1
Found: fulfilled

Lookup: For this compound, is z-score lower than -2? Oc1ccc2cc[n+](Cc3cccc(OC(F)(F)F)c3)cc2c1
Found: not fulfilled

----------
# experimentalProtocol: growth of efflux-deficient E. coli DRC39 – strain DRC39, OD650, 48 h, E. coli filamentation inducers, primary screen (AID 1179);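 also: screen aims at cell division blockers that make cells filament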
# statedConditions: E. coli DRC39 delta-acrAB growth, higher = more signal, called active from +8 up or from −8 down
Quick list: z-score per entry.
# print the numeric value only

Solved entries (count: 3):
COCCOC(=O)N1C(=O)[C@@]2(c3cc(C#CC4(O)CCCCCC4)ccc31)[C@H](c1ccc(O)cc1)N1[C@H](c3ccccc3)[C@H](c3ccccc3)OC(=O)[C@H]1[C@@H]2C(=O)N1CCc2cc(OC)c(OC)cc2C1	-0.8
[N-]=[N+]=Nc1ccccc1[C@H]1OC(c2ccc(OCCCO)cc2)=N[C@@]1(CCS(=O)(=O)c1ccccc1)C(=O)N1CCOCC1	0.187
O=C1C[C@@](C(=O)O)(c2ccc([N+](=O)[O-])cc2)[C@@H](c2ccc(CO)cc2I)N1C1CCCCC1	0.466

Now consider the entry below.
Lookup: May I ask what z-score has been recorded for CCCC[C@H]1OB(O)C[C@H]2C1=C(COc1ccccc1)C[C@H]1C(=O)N(Cc3ccccc3)C(=O)[C@H]12 ?
Found: -0.281

----------
# experimentalProtocol: JC-1 mitochondrial signal, unstimulated MM1S myeloma – cell-based, JC-1 fluorescence, 24 h, 100 nL compound, profiling panel (AID 1170); also: test concentration not given here
# statedConditions: MM1S mitochondrial potential, higher = more signal
Below, each entry is listed with its recorded z-score.

Here is how some compounds turned out for z-score.
C=CCOC(=O)[C@@H]1[C@H]2C(=O)O[C@H](c3ccccc3)[C@H](c3ccccc3)N2[C@H](c2ccc(OCCOC(=O)[C@H]3C[C@H]4C(=O)N[C@@H](CCCC[N+](C)(C)C)C(=O)N4[C@H]3c3cccc(OCCO)c3)cc2)[C@@]12C(=O)Nc1ccc(I)cc12	-1.24
NC(=O)NCC#Cc1ccc2c(c1)[C@]1(C(=O)N2)[C@H](c2ccccc2OCCO)N2[C@H](c3ccccc3)[C@H](c3ccccc3)OC(=O)[C@H]2[C@@H]1C(=O)N1CCCCCCC1	0.143

# input for lookup
Lookup: Query: z-score; subject: CCCC[C@H]1OB(O)C[C@H]2C1=C(C)Cn1c(=O)n(-c3ccccc3)c(=O)n12
Found: -0.503

----------
# experimentalProtocol: basal CRE-LacZ reporter activity in PC12 – cell-based, unstimulated, primary screen (AID 1145)
# statedConditions: no forskolin, luminescence, 4.5 h, higher = more signal, called active from +8 up or from −8 down
Param threshold (0.3) applies to z-score; output 1.0 when value >= threshold, 0.0 when value < threshold.

O=C1c2ccccc2[C@@]2(Cc3ccccc3N(Cc3ccccc3)C2=O)[C@H](c2ccc(CO)cc2)N1Cc1ccccc1C(F)(F)F	0.0
C[C@]1(C(=O)NCC(F)(F)F)c2ccccc2C(=O)N(Cc2cc(F)cc(C(F)(F)F)c2)[C@H]1c1ccc(CO)cc1	1.0

Lookup: Is the recorded value of z-score equal to or greater than 0.3 for this compound? O[C@@H](Cc1ccccc1)[C@@H](/C=C/c1ccccc1)NCc1ccccc1Br
Found: 1.0

Lookup: Determine whether measured z-score meets or exceeds 0.3 for COC(=O)[C@@]1(Cc2ccc(F)cc2)[C@H]2c3cc(C(=O)N4CCCC4)n(CCc4ccc(OC)c(Br)c4)c3C[C@H]2CN1C(=O)c1ccccc1
Found: 0.0

Lookup: Given CC(C)C(O)C1C=CC2C(=O)N(C)C(=O)C2N1N1CCCCC1 (stereo not given) , state whether its z-score is at least 0.3.
Found: 0.0

----------
This listing pairs compounds with measured z-score.
# measuredOn: NADPH oxidase 2 (Homo sapiens) (UniProt P04839)
# Sequence (P04839 whole entry, looked up): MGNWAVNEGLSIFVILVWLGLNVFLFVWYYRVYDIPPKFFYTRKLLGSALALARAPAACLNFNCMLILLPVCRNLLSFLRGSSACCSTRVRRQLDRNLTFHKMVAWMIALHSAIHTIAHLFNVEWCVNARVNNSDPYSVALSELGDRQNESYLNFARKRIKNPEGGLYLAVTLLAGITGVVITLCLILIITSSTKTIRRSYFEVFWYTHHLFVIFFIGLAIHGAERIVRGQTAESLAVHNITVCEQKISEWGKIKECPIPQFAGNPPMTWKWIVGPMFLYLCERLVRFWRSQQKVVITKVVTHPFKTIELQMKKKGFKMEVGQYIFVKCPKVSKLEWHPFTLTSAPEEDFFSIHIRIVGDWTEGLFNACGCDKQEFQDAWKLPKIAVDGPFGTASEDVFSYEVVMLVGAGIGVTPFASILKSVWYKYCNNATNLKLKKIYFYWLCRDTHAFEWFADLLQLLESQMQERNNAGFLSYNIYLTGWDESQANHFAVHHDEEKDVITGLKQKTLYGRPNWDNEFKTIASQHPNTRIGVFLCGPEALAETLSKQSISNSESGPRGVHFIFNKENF
# experimentalProtocol: compounds shifting NOX2 Amplex Red fluorescence – cell-based, HEK293-NOX2, PMA-stimulated, NOX inhibitor project, primary screen (AID 1159); also: test concentration not given here
# statedConditions: 45 min, higher = more signal, called active from +8 up or from −8 down
Response field accepts a number only; no unit should be typed.

COc1ccc(CCNC(=O)[C@@]2(C)c3ccccc3C(=O)N(Cc3ccccc3)[C@H]2c2ccc(CO)cc2)cc1	-3.58
C[C@H]1C2[C@H](Cc3ccccc3)NC(=O)[C@]23C(=O)N[C@H](Cc2ccccc2)C(=O)N[C@H](Cc2ccccc2)C(=O)NC/C=C/CCC/C=C/C3[C@@H]2O[C@]12C (stereo partly drawn)	0.563

Here is the next item to consider.
Lookup: Field request: z-score | item: COC(=O)[C@@]1(Cc2ccccc2)[C@H]2c3cc(C(=O)N(C)C)n(Cc4cc(F)c(F)c(F)c4)c3C[C@H]2CN1C(=O)c1ccccc1
Found: -0.0214
